Molecular target: SIK1 (Homo sapiens, UniProt P57059)
Construct: purchased Carna Biosciences 02-131
Sequence (P57059 whole entry): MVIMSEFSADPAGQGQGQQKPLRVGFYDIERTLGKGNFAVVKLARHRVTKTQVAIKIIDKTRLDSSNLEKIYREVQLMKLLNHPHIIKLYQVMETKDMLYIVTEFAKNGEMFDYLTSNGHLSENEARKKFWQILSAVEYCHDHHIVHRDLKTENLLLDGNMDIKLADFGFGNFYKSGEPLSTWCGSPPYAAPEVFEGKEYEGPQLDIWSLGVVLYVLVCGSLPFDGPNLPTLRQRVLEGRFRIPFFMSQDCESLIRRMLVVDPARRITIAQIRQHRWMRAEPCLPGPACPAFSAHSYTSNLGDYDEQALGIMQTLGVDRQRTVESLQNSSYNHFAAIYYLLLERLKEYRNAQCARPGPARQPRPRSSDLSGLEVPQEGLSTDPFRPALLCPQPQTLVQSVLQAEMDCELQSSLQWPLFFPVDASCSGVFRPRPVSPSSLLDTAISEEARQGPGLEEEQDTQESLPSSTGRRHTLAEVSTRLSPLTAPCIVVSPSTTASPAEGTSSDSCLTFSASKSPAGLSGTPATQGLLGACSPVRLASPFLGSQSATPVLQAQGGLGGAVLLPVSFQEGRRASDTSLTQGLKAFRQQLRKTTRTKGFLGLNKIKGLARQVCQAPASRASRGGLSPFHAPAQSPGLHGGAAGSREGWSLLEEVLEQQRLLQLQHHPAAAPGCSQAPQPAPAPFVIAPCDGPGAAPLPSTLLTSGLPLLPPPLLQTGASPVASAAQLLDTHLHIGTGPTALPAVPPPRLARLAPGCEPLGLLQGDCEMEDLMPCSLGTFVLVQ
Assay: biochemical
Conditions: 33P radioactive SIK kinase assay, AMARA peptide, 10 μM ATP; read-out: SIK1 IC50
Experimental: The principle of the ^33P radioactive kinase assay consists in measuring the incorporated ^33P into the substrate AMARA peptide when phosphorylated by SIK1, SIK2 or SIK3 using [^33P]-g-ATP, which correlates with kinase activity. […] After harvesting the kinase reactions, the filter plates are washed 6 times with phosphoric acid (75 mM). […] The top of the plates are sealed with TopSeal-A. Read-out is performed with a TopCount instrument (PerkinElmer Inc.).
Exercise: for every item that follows, state its recorded IC50.

Solved cases below.
INSERT INTO measurements (smiles_str, assayed_target, reported_result) VALUES
  ('COc1cc(-n2cnc3cc(-c4cnn(C)c4)ccc32)cc(OC)c1C(=O)NCc1nccn1C', 'SIK1 (Homo sapiens, UniProt P57059)', '100 to 500 nM'),
  ('COc1cc(-n2cnc3cc(-c4cnn(C)c4)ccc32)cc(OC)c1C(=O)N(C)CC#N', 'SIK1 (Homo sapiens, UniProt P57059)', '100 to 500 nM'),
  ('COc1cc(-c2cnc3cc(-c4cc(C)no4)ccn23)cc(OC)c1C(=O)N[C@@H](C)C(F)(F)F', 'SIK1 (Homo sapiens, UniProt P57059)', '100 to 500 nM');

Now let's try a different one.
query: Indicate the recorded IC50 value for this compound: COc1cc(-c2cnc3cc(-c4cnn(C)c4)cnn23)cc(OC)c1C(=O)NC1CC1
result: 0.01 to 10 nM

The reported numbers originate from patent US12065443B2.
